- target-under-test: swine COX-2 (Sus scrofa)
- method-summary: Porcine alveolar macrophage COX inhibitor assay (PGE2 read-out)
- Format: cell-based
- condition-label: read-out: COX-2 IC50; LPS-treated porcine alveolar macrophages, PGE2 by ELISA, 21-24 hours incubation
assay-readout: log10(IC50) (log10 of the value in nM)
The base-10 logarithm of IC50, taken with IC50 in nM, is what appears here.

Prompt: Report log10(IC50) for CC(C(=O)OCCNC(=O)c1cccnc1)c1cccc(C(=O)c2ccccc2)c1 (centres unmarked) tested on swine COX-2 (Sus scrofa).
Completion: 2.08

Prompt: Report log10(IC50) for COC(=O)C(C)c1cccc(C(=O)c2ccccc2)c1 (centres unmarked) [Formula 1, methyl 2-(3-benzoylphenyl)propanoate] tested on swine COX-2 (Sus scrofa).
Completion: 2.11

Prompt: Report log10(IC50) for CC(C(=O)O)c1cccc(C(=O)c2ccccc2)c1 (racemic) tested on swine COX-2 (Sus scrofa).
Completion: 0.78

Prompt: Report log10(IC50) for CC(C(=O)O)c1ccc2c(c1)[nH]c1ccc(Cl)cc12 (centres unmarked) tested on swine COX-2 (Sus scrofa).
Completion: 3.50

Prompt: Report log10(IC50) for Cc1cnc(NC(=O)C2=C(O)c3ccccc3S(=O)(=O)N2C)s1 tested on swine COX-2 (Sus scrofa).
Completion: 2.75

====

- target-under-test: UniProt A0A287ANF9
- method-summary: Porcine alveolar macrophage COX inhibitor assay (TXB2 read-out)
- Assay type: cell-based
- condition-label: read-out: IC50 against swine ortholog of COX-1, one range given for COX-1 and COX-2
assay-readout: IC50

Prompt: Report IC50 for CC(C(=O)O)c1cccc(C(=O)c2ccccc2)c1 (racemic) [Ketoprofen, 2-(3-benzoylphenyl)-propionic acid] tested on UniProt A0A287ANF9.
Completion: 6 to 7 nM

====

- target-under-test: bovine COX-2 (Bos taurus, UniProt O62698)
- Construct: using a bovine whole blood assay; from tissue; host or cells: heparinized bovine whole blood, LPS-treated
- method-summary: Bovine in vitro whole blood COX inhibitor assay (PGE2)
- Type: cell-based
assay-readout: IC50 (nM)
The response must be a number in nM with no trailing unit.

Prompt: Which IC50 value is on record for COC(=O)C(C)c1cccc(C(=O)c2ccccc2)c1 (stereo not shown) [Formula 1, methyl 2-(3-benzoylphenyl)propanoate] ?
Completion: 290

====

- target-under-test: UniProt:Q8SPR3
- method-summary: Porcine alveolar macrophage COX inhibitor assay (PGE2 read-out)
- Format: cell-based
- condition-label: read-out: IC50 against swine ortholog of COX-2, one range given for COX-1 and COX-2
pIC50: −log10 of the molar value.
assay-readout: pIC50

Prompt: Which pIC50 value is on record for CC(C(=O)O)c1cccc(C(=O)c2ccccc2)c1 (racemic) [Ketoprofen, 2-(3-benzoylphenyl)-propionic acid] ?
Completion: 8.15 to 8.22

====

I'd be grateful if you could share measured IC90 for these entries.
- target-under-test: swine COX-1 (Sus scrofa, UniProt A0A287ANF9)
- Sequence (A0A287ANF9 25-600): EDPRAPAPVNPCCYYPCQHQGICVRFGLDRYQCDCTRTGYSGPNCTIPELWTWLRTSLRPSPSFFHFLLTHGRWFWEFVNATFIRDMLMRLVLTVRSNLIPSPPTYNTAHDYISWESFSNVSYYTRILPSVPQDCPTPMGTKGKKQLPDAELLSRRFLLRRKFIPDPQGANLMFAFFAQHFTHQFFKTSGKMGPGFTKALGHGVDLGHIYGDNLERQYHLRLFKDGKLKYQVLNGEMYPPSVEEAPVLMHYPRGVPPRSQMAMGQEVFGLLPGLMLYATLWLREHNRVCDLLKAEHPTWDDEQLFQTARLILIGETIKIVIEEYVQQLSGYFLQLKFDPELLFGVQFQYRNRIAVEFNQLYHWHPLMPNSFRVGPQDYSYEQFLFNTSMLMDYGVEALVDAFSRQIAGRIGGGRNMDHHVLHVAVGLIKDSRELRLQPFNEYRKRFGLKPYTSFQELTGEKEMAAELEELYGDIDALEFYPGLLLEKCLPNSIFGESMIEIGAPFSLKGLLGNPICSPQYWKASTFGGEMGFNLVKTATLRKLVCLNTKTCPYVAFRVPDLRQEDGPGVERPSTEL
- method-summary: Porcine alveolar macrophage COX inhibitor assay (TXB2 read-out)
- Assay type: cell-based
- condition-label: read-out: COX-1 IC90
The response must be a number in µM with no trailing unit.

Prompt: Which IC90 value is on record for CC(C(=O)OCCNC(=O)c1cccnc1)c1cccc(C(=O)c2ccccc2)c1 (centres unmarked) [Formula 3] ?
Completion: 4.86

Prompt: Which IC90 value is on record for COC(=O)C(C)c1cccc(C(=O)c2ccccc2)c1 (centres unmarked) [Formula 1, methyl 2-(3-benzoylphenyl)propanoate] ?
Completion: 1.68

Prompt: Which IC90 value is on record for CC(C(=O)O)c1ccc2c(c1)[nH]c1ccc(Cl)cc12 (centres unmarked) [Carprofen] ?
Completion: 58.4

Prompt: Which IC90 value is on record for CC(C(=O)O)c1cccc(C(=O)c2ccccc2)c1 (racemic) [Ketoprofen, 2-(3-benzoylphenyl)-propionic acid] ?
Completion: 0.08

Prompt: Which IC90 value is on record for Cc1cnc(NC(=O)C2=C(O)c3ccccc3S(=O)(=O)N2C)s1 [Meloxicam] ?
Completion: 49.3

====

I'd be grateful if you could share measured pIC50 for these entries.
- target-under-test: swine COX-1 (Sus scrofa, UniProt A0A287ANF9)
- method-summary: Porcine alveolar macrophage COX inhibitor assay (TXB2 read-out)
- Type: cell-based
- condition-label: LPS-treated porcine alveolar macrophages, TXB2 by ELISA, 21-24 hours incubation; read-out: COX-1 IC50
// pIC50 is dimensionless: -log10 of concentration (M)

Prompt: Which pIC50 value is on record for Cc1cnc(NC(=O)C2=C(O)c3ccccc3S(=O)(=O)N2C)s1 ?
Completion: 5.99

Prompt: Which pIC50 value is on record for CC(C(=O)O)c1ccc2c(c1)[nH]c1ccc(Cl)cc12 (stereo not drawn) ?
Completion: 5.30

Prompt: Which pIC50 value is on record for C[C@H](C(=O)O)c1cccc(C(=O)c2ccccc2)c1 (single isomer, unassigned) [Ketoprofen (S)-enantiomer] ?
Completion: 8.70

====

- target-under-test: bovine COX-2 (Bos taurus, UniProt O62698)
- Construct: using a bovine whole blood assay; from tissue; host or cells: heparinized bovine whole blood, LPS-treated
- Sequence (O62698 18-604): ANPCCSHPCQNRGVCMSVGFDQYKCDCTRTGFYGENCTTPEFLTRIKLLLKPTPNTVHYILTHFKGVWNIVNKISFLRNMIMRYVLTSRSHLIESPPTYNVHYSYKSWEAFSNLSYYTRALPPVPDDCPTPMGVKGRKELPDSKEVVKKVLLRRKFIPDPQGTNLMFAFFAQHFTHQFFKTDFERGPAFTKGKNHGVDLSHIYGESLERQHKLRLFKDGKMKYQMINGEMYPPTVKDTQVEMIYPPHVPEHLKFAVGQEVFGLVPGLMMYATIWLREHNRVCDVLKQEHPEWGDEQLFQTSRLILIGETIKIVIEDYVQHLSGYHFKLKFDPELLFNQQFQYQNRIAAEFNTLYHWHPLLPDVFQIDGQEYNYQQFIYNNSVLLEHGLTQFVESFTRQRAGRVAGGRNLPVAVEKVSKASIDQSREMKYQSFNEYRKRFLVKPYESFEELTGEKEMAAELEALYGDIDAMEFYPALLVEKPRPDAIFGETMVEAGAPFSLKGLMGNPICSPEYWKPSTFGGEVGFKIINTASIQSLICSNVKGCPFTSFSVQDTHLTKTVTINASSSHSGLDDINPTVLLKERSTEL
- method-summary: Bovine in vitro whole blood COX inhibitor assay (PGE2)
- Format: cell-based
- condition-label: read-out: IC50 against bovine COX-2
assay-readout: IC50 (µM)
The response must be a number in µM with no trailing unit.

Prompt: Which IC50 value is on record for CC(C(=O)O)c1cccc(C(=O)c2ccccc2)c1 (racemic) ?
Completion: 0.22

====

- target-under-test: swine COX-2 (Sus scrofa, UniProt Q8SPR3)
- Sequence (Q8SPR3 entry or part of it): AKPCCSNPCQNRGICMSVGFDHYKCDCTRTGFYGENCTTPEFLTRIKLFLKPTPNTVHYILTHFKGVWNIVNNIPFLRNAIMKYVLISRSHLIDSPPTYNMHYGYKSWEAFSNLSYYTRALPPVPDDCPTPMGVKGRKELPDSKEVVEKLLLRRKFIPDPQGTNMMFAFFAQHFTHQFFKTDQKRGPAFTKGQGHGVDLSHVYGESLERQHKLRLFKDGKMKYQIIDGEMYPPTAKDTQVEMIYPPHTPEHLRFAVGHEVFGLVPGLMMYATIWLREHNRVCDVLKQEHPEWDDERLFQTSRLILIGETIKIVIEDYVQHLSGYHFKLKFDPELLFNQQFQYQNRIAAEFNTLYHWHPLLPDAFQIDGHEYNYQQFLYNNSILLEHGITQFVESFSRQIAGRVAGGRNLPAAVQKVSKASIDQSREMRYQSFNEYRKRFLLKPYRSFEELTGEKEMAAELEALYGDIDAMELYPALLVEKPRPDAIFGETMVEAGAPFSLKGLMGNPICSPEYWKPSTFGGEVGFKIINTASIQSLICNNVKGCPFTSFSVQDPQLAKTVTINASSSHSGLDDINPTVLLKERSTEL
- method-summary: Porcine alveolar macrophage COX inhibitor assay (PGE2 read-out)
- Assay type: cell-based
- condition-label: LPS-treated porcine alveolar macrophages, PGE2 by ELISA, 21-24 hours incubation; read-out: COX-2 IC50
assay-readout: pIC50
// pIC50 is dimensionless: -log10 of concentration (M)

Prompt: Which pIC50 value is on record for Cc1c(Nc2ncccc2C(=O)O)cccc1C(F)(F)F ?
Completion: 7.48

Prompt: Which pIC50 value is on record for C[C@H](C(=O)O)c1cccc(C(=O)c2ccccc2)c1 (single isomer, unassigned) [Ketoprofen (S)-enantiomer] ?
Completion: 9.00

====

I'd be grateful if you could share measured IC90 for these entries.
- target-under-test: swine COX-2 (Sus scrofa, UniProt Q8SPR3)
- method-summary: Porcine alveolar macrophage COX inhibitor assay (PGE2 read-out)
- Format: cell-based
- condition-label: read-out: COX-2 IC90
The response must be a number in nM with no trailing unit.

Prompt: Which IC90 value is on record for CC(C(=O)O)c1ccc2c(c1)[nH]c1ccc(Cl)cc12 (centres unmarked) ?
Completion: 39000

Prompt: Which IC90 value is on record for COC(=O)C(C)c1cccc(C(=O)c2ccccc2)c1 (centres unmarked) [Formula 1, methyl 2-(3-benzoylphenyl)propanoate] ?
Completion: 840

Prompt: Which IC90 value is on record for CC(C(=O)O)c1cccc(C(=O)c2ccccc2)c1 (racemic) ?
Completion: 80

Prompt: Which IC90 value is on record for Cc1cnc(NC(=O)C2=C(O)c3ccccc3S(=O)(=O)N2C)s1 ?
Completion: 9000

Prompt: Which IC90 value is on record for CC(C(=O)OCCNC(=O)c1cccnc1)c1cccc(C(=O)c2ccccc2)c1 (centres unmarked) ?
Completion: 930

====

- target-under-test: swine COX-1 (Sus scrofa, UniProt A0A287ANF9)
- method-summary: Porcine alveolar macrophage COX inhibitor assay (TXB2 read-out)
- Format: cell-based
- condition-label: read-out: COX-1 IC50; LPS-treated porcine alveolar macrophages, TXB2 by ELISA, 21-24 hours incubation
I'd be grateful if you could share measured pIC50 for these entries.
// pIC50 is dimensionless: -log10 of concentration (M)

Prompt: Which pIC50 value is on record for COC(=O)C(C)c1cccc(C(=O)c2ccccc2)c1 (stereo not shown) [Formula 1, methyl 2-(3-benzoylphenyl)propanoate] ?
Completion: 6.59

Prompt: Which pIC50 value is on record for Cc1c(Nc2ncccc2C(=O)O)cccc1C(F)(F)F ?
Completion: 7.18

Prompt: Which pIC50 value is on record for CC(C(=O)O)c1cccc(C(=O)c2ccccc2)c1 (racemic) ?
Completion: 8.15

Prompt: Which pIC50 value is on record for CC(C(=O)OCCNC(=O)c1cccnc1)c1cccc(C(=O)c2ccccc2)c1 (stereo not shown) ?
Completion: 6.82
